Data origin, for the record: the supplement of paper PMC10127200

System: A549
Experiment: Euclidean distance of Cell Painting phenotypic profile (signed KS, 77 features) to DMSO centroid (dimensionless distance); 5 or 10 uM (library dependent); higher = stronger phenotypic change vs DMSO (phenoactivity)
Settings: 48 h
Where a name gives a salt, the structure may show the parent alone.
Classification field: class 1 = Euclidean distance at or over 0.7; class 0 = Euclidean distance under 0.7.

[
  {
    "compound": "C[C@H]1NCc2cc(-c3ccc4c(=O)c(C(=O)O)cn(C5CC5)c4c3OC(F)F)ccc21 [Garenoxacin]",
    "assignedClass": "class 1"
  },
  {
    "compound": "CCOC(=O)c1c(N)sc2c1CCN(Cc1ccccc1)C2 [Tinoridine hydrochloride]",
    "assignedClass": "class 1"
  },
  {
    "compound": "CCCC(C)NC(=O)c1ccc(Cl)c(Cl)c1 (centres undefined)",
    "assignedClass": "class 0"
  }
]

Lookup: Euclidean distance >= 0.7 for CC[C@H](CO)Nc1nc(NCc2ccccc2)c2ncn(C(C)C)c2n1 [Roscovitine (Seliciclib.CYC202)] ?
Found: class 1

Lookup: Please tell me: is the compound CCC[C@@H]1C[C@@H](C(=O)N[C@@H]([C@H]2O[C@H](SC)[C@H](OP(=O)(O)O)[C@@H](O)[C@H]2O)[C@H](C)Cl)N(C)C1 [Clindamycin Phosphate] at or over 0.7 in terms of Euclidean distance?
Found: class 0

###

# reported Euclidean distance; entries follow
Test system: DU145
Test: Euclidean distance of Cell Painting phenotypic profile (signed KS, 77 features) to DMSO centroid (dimensionless distance); 5 or 10 uM (library dependent); higher = stronger phenotypic change vs DMSO (phenoactivity)
Conditions: 48 h
Response field accepts a number only; no unit should be typed.

[
  {
    "compound": "Cn1cc(/C=C2\\C(=O)Nc3cccnc32)c2ccccc21",
    "Euclidean distance": 1.16
  },
  {
    "compound": "C[C@]12CC[C@@H]3c4ccc(OC(=O)c5ccccc5)cc4CC[C@H]3[C@@H]1CC[C@@H]2O [Estradiol Benzoate]",
    "Euclidean distance": 0.933
  },
  {
    "compound": "NS(=O)(=O)c1cc2c(cc1Cl)N=CNS2(=O)=O [Chlorothiazide]",
    "Euclidean distance": 1.22
  }
]

Now turn to the next compound.
Lookup: Can you share its Euclidean distance? I mean this compound: CC1(C)S[C@@H]2[C@H](NC(=O)[C@H](N)c3ccc(O)cc3)C(=O)N2[C@H]1C(=O)O [Amoxicillin]
Found: 0.78

###

Tested on: HEPG2
Test: Euclidean distance of Cell Painting phenotypic profile (signed KS, 77 features) to DMSO centroid (dimensionless distance); 5 or 10 uM (library dependent); higher = stronger phenotypic change vs DMSO (phenoactivity)
Details: 48 h
propertyName: Euclidean distance
// keep it numeric: no unit symbol after the value

[
  {
    "compound": "COC(=O)C1=C(C)NC(C)=C(C(=O)OCCN2CCN(C(c3ccccc3)c3ccccc3)CC2)C1c1cccc([N+](=O)[O-])c1 (stereo not drawn) [Manidipine 2HCl]",
    "targetEntity": "HEPG2",
    "Euclidean distance": 1.84
  }
]

Lookup: So what does the record say about Euclidean distance for `Clc1ccc(Cn2c(CN3CCCC3)nc3ccccc32)cc1` ?
Found: 0.65

Lookup: I have this compound here, `c1cnc(N2CCN(Cc3ccc4c(c3)OCO4)CC2)nc1` , and I need its recorded Euclidean distance.
Found: 0.645

Lookup: May I ask what Euclidean distance has been recorded for `CN1C(=O)[C@@H](NC(=O)c2n[nH]c(Cc3ccccc3)n2)COc2ccccc21` ?
Found: 0.727

Lookup: What Euclidean distance value was documented for this compound, `C[C@@H]1C[C@H]2[C@@H]3C[C@H](F)C4=CC(=O)C=C[C@]4(C)[C@@]3(F)[C@@H](O)C[C@]2(C)[C@@]1(O)C(=O)CO` ?
Found: 0.627

Lookup: What value of measured Euclidean distance is listed for COc1ccc2[nH]c([S@@+]([O-])Cc3ncc(C)c(OC)c3C)nc2c1 [Esomeprazole sodium] ?
Found: 1.32

Lookup: # Euclidean distance lookup, item `C[C@@H](Oc1cc(-c2cnn(C3CCNCC3)c2)cnc1N)c1c(Cl)ccc(F)c1Cl`
Found: 4.27

Lookup: Which Euclidean distance reading was recorded for the compound `CCC1(c2ccccc2)C(=O)NCNC1=O` ?
Found: 0.442

###

Each item that follows carries a reported Euclidean distance.
Test system: 786-O
Test: Euclidean distance of Cell Painting phenotypic profile (signed KS, 77 features) to DMSO centroid (dimensionless distance); 5 or 10 uM (library dependent); higher = stronger phenotypic change vs DMSO (phenoactivity)
Conditions: 48 h
Where a name gives a salt, the structure may show the parent alone.
Reply briefly: the number, and no unit.

Solved entries (count: 3):
[
  {
    "compound": "C[N+]1(C)[C@@H]2C[C@@H](OC(=O)C(O)(c3cccs3)c3cccs3)C[C@H]1[C@@H]1O[C@@H]12 [Tiotropium Bromide hydrate]",
    "numericReadout": 1.26
  },
  {
    "compound": "C=C1C(=O)O[C@@H]2/C=C(\\C)CC/C=C(\\C)CC[C@@H]12 [Costunolide]",
    "numericReadout": 1.27
  },
  {
    "compound": "CCCCCCCCOc1ccccc1C(=O)Nc1ccc(C(=O)OCC[N+](C)(CC)CC)cc1 [Otilonium Bromide]",
    "numericReadout": 1.03
  }
]

Lookup: Which value of Euclidean distance has been reported for `O=C(c1ccc(Nc2nccc(-c3cc4ccccc4s3)n2)cc1)N1CCC(N2CCCC2)CC1` in the records?
Found: 3.91

Lookup: Need Euclidean distance of Cc1ccccc1C(OCCN(C)C)c1ccccc1 (stereo unspecified) [Orphenadrine Citrate] , thanks.
Found: 1.08

###

System: A549
Assay: Euclidean distance of Cell Painting phenotypic profile (signed KS, 77 features) to DMSO centroid (dimensionless distance); 5 or 10 uM (library dependent); higher = stronger phenotypic change vs DMSO (phenoactivity)
Settings: 48 h
Counter-ions that a name gives are not always drawn.
propertyName: Euclidean distance
Hey, just send me the number, nothing else.

Lookup: Entry under review: CN[C@H]1CN(c2ccc3c(=O)c(C(=O)O)cn(-c4nccs4)c3n2)C[C@@H]1OC [Voreloxin (SNS-595) hydrochloride] . Reported Euclidean distance?
Found: 3.76

Lookup: Data request, read-out Euclidean distance, for CCn1cc(C(=O)O)c(=O)c2cc(F)c(N3CCNCC3)nc21 [Enoxacin]
Found: 0.783

Lookup: Reported Euclidean distance for CCCCCCOC(=O)NC(=N)c1ccc(NCc2nc3cc(C(=O)N(CCC(=O)OCC)c4ccccn4)ccc3n2C)cc1 [Dabigatran Etexilate] : what is it?
Found: 1.35

###

Test system: A549
Assay: Euclidean distance of Cell Painting phenotypic profile (signed KS, 77 features) to DMSO centroid (dimensionless distance); 5 or 10 uM (library dependent); higher = stronger phenotypic change vs DMSO (phenoactivity)
Details: 48 h
Counter-ions that a name gives are not always drawn.
propertyName: Euclidean distance

Worked examples follow.
[
  {
    "molecule": "CCCOC(C(=O)OC1CCN(C)CC1)(c1ccccc1)c1ccccc1 [Propiverine hydrochloride]",
    "Euclidean distance": 1.08
  },
  {
    "molecule": "N=C(NCCCCCCNC(=N)NC(=N)Nc1ccc(Cl)cc1)NC(=N)Nc1ccc(Cl)cc1 [Chlorhexidine]",
    "Euclidean distance": 3.54
  },
  {
    "molecule": "CN(C)CCc1c[nH]c2ccc(Cn3cncn3)cc12 [Rizatriptan Benzoate]",
    "Euclidean distance": 1.08
  }
]

Lookup: Would you kindly share the measured Euclidean distance for COc1cc(Nc2ncc3c(n2)-c2ccc(Cl)cc2C(c2c(F)cccc2OC)=NC3)ccc1C(=O)O [Alisertib (MLN8237)] ?
Found: 3.22

###

System: DU145
Assay: Euclidean distance of Cell Painting phenotypic profile (signed KS, 77 features) to DMSO centroid (dimensionless distance); 5 or 10 uM (library dependent); higher = stronger phenotypic change vs DMSO (phenoactivity)
Settings: 48 h
Lab note: anything with Euclidean distance at or over 1 counts as Yes; the rest go in No.

Examples with answers:
[
  {
    "compound": "CC(C)(C)OC(=O)N[C@H]1CCCCC/C=C\\[C@@H]2C[C@@]2(C(=O)NS(=O)(=O)C2CC2)NC(=O)[C@@H]2C[C@@H](OC(=O)N3Cc4cccc(F)c4C3)CN2C1=O",
    "assignedClass": "Yes"
  },
  {
    "compound": "CC(C(=O)O)c1ccc(C(=O)c2cccs2)cc1 (configuration not stated)",
    "assignedClass": "No"
  },
  {
    "compound": "C[C@@H]1CCO[C@H]2Cn3cc(C(=O)NCc4ccc(F)cc4F)c(=O)c(O)c3C(=O)N12",
    "assignedClass": "Yes"
  },
  {
    "compound": "O=C(Cn1cnnn1)N[C@@H]1C(=O)N2C(C(=O)O)=C(CSc3nncs3)CS[C@H]12 [Ceftezole sodium]",
    "assignedClass": "Yes"
  },
  {
    "compound": "CNC[C@@H](O)c1ccc(O)c(O)c1",
    "assignedClass": "No"
  },
  {
    "compound": "C=CC(=O)N1CCC([C@@H]2CCNc3c(C(N)=O)c(-c4ccc(Oc5ccccc5)cc4)nn32)CC1",
    "assignedClass": "Yes"
  }
]

// switching to the query compound
Lookup: Hi, just wondering whether CCC[C@@H]1C[C@@H](C(=O)N[C@@H]([C@H]2O[C@H](SC)[C@H](OP(=O)(O)O)[C@@H](O)[C@H]2O)[C@H](C)Cl)N(C)C1 [Clindamycin Phosphate] shows Euclidean distance of 1 or higher.
Found: No
